# assay.target: Mu-type opioid receptor (Homo sapiens)
# method.summary: Inhibition percent of compound towards human Mu opioid receptor
# Design: concentration or dose not given beside the values
# condition.notes: concentration not given here
observed.property: inhibition

Fill in: inhibition of O=C1[C@@H](c2ccc(Cl)c(Cl)c2)CC=CCN1C(CN1CCCC1)c1ccccc1 (stereo partly drawn) is ___
< 60%

Fill in: inhibition of COc1ccc([C@H]2CC=CCN(C(CN3CCCC3)c3ccccc3)C2=O)cc1 (stereo partly drawn) is ___
< 60%

Others:
Fill in: inhibition of O=C1C(Oc2ccc(Cl)c(Cl)c2)CC=CCN1C(CN1CCCC1)c1ccccc1 (stereo not drawn) is ___
< 60%

---

# assay.target: Delta-type opioid receptor (Homo sapiens, UniProt P41143)
# Sequence (P41143 whole entry): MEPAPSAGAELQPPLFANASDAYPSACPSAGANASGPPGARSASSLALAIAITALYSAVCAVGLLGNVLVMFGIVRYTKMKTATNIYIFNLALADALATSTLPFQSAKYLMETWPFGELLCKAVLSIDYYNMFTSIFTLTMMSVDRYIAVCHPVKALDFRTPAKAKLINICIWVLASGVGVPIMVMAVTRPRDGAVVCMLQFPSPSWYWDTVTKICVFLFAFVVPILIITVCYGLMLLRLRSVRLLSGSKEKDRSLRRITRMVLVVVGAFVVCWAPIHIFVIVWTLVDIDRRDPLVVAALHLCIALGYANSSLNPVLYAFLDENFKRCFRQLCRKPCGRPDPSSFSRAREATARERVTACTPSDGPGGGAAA
# method.summary: Binding affinity for human Delta opioid receptor
// values below are reported pKi
As a rule, pKi stands for the negative log10 of the concentration, concentration in M.

Fill in: pKi of O=C1C(c2ccc(Cl)c(Cl)c2)CC=CCN1C(CN1CCCC1)c1ccccc1 (configuration not stated) is ___
6.43

Field: next molecule
Fill in: pKi of O=C1C(c2ccc(C(F)(F)F)cc2)CC=CCN1C(CN1CCCC1)c1ccccc1 (configuration not stated) is ___
6.00

---

# assay.target: Mu-type opioid receptor (Homo sapiens, UniProt P35372)
# Sequence (P35372 whole entry): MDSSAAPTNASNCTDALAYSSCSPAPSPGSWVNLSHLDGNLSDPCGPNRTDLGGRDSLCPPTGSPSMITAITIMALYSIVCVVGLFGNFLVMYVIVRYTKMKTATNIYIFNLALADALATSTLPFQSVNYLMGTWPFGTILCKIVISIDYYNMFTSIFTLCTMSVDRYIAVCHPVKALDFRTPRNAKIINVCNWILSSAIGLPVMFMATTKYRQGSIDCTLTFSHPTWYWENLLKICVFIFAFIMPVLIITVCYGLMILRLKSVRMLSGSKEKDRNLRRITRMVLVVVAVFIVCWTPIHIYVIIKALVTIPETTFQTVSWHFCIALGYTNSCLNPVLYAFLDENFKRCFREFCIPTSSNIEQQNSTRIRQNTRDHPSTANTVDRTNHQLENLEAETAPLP
observed.property: Ki (nM)
Write the value in nM as a bare number.

Fill in: Ki of O=C1C(c2ccc(Cl)c(Cl)c2)CC=CCN1C(CN1CCCC1)c1ccccc1 (stereo unspecified) is ___
1000

---

// values below are reported log10 Ki
# assay.target: Kappa-type opioid receptor (Homo sapiens, UniProt P41145)
# Sequence (P41145 whole entry): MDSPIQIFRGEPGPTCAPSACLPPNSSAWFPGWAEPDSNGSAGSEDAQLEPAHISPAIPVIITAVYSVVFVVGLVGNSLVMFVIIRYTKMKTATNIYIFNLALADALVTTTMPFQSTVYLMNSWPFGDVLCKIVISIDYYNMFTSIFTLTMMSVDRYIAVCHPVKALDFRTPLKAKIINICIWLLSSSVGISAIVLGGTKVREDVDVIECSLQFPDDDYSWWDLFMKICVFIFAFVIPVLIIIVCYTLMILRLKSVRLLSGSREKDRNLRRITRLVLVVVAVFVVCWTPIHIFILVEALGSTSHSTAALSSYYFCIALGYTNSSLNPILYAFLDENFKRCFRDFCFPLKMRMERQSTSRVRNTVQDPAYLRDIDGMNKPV
# method.summary: Binding affinity for human Kappa opioid receptor
Values below are the log10 of the recorded Ki, with nM as the unit.

Fill in: log10 Ki of O=C1[C@H](c2ccc(Cl)c(Cl)c2)CC=CCN1[C@H](CN1CC[C@H](O)C1)c1ccccc1 is ___
-0.70

Others:
Fill in: log10 Ki of COc1ccc([C@H]2CC=CCN(C(CN3CCCC3)c3ccccc3)C2=O)cc1 (stereo partly drawn) is ___
2.90

Fill in: log10 Ki of O=C1C(c2cccc(S(=O)(=O)N3CCCC3)c2)CC=CCN1C(CN1CCCC1)c1ccccc1 (stereo not drawn) is ___
3.28

Fill in: log10 Ki of O=C1C(Oc2ccc(Cl)c(Cl)c2)CC=CCN1C(CN1CCCC1)c1ccccc1 (stereo not drawn) is ___
0.41

Fill in: log10 Ki of O=C1C(c2ccc(C(F)(F)F)cc2)CC=CCN1C(CN1CCCC1)c1ccccc1 (stereo not drawn) is ___
-0.14

Fill in: log10 Ki of O=C1[C@@H](c2ccc(Cl)cc2)CC=CCN1C(CN1CCCC1)c1ccccc1 (stereo partly drawn) is ___
1.54

Fill in: log10 Ki of O=C1[C@H](c2ccc(Cl)c(Cl)c2)CC=CCN1[C@H](CN1CCCC1)c1ccccc1 is ___
1.08

Fill in: log10 Ki of COc1ccc(C2CC=CCN(C(CN3CCCC3)c3ccccc3)C2=O)cc1 (stereo not drawn) is ___
1.34
